- target or test system: GlcA3S(b1-3)Gal(b1-4)GlcNAc(b1-3)Gal(b1-4)Glc
- experiment description: glycan array binding signal (z-score within array); higher = stronger binding
- conditions used: glycan notation: IUPAC condensed, linker removed
About 410 targets per protein were measured; listed, in parts, are those with the strongest signals and a random draw of the rest.
recorded endpoint: glycan array binding signal (z-score)

{"binder": "CGL (Crenomytilus grayanus), H2FH31 (protein) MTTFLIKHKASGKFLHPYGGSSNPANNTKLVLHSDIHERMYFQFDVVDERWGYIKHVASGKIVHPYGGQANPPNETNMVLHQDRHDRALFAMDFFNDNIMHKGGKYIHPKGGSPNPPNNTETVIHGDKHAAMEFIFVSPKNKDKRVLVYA", "recorded endpoint": "glycan array binding signal (z-score)", "recorded value": -0.414}
{"binder": "Dectin-1 (Mus musculus), Q6QLQ4 (protein) GHNSGRNPEEKDNFLSRNKENHKPTESSLDEKVAPSKASQTTGGFSQPCLPNWIMHGKSCYLFSFSGNSWYGSKRHCSQLGAHLLKIDNSKEFEFIESQTSSHRINAFWIGLSRNQSEGPWFWEDGSAFFPNSFQVRNTAPQESLLHNCVWIHGSEVYNQICNTSSYSICEKEL", "recorded endpoint": "glycan array binding signal (z-score)", "recorded value": -0.078}
{"binder": "Nc3LysM (protein) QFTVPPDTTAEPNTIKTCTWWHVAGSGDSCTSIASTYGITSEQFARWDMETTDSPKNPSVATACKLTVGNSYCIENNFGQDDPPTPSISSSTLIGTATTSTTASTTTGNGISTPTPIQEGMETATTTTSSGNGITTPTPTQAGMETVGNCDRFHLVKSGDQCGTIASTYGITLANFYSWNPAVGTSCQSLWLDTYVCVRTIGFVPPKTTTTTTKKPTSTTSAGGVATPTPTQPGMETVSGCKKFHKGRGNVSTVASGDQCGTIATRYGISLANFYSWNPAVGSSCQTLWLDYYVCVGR", "recorded endpoint": "glycan array binding signal (z-score)", "recorded value": -0.126}
{"binder": "HPA (Helix pomatia), Q575S3 (protein) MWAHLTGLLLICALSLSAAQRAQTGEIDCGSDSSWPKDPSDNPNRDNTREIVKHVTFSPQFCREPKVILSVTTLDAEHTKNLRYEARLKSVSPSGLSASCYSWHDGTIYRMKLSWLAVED", "recorded endpoint": "glycan array binding signal (z-score)", "recorded value": -0.256}
{"binder": "Actd5 (Actinidia), P84527 (protein) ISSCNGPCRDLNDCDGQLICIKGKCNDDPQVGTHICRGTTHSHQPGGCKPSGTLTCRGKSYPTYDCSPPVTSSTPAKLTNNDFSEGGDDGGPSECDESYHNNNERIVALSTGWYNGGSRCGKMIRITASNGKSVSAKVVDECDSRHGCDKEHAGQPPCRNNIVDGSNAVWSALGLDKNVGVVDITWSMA", "recorded endpoint": "glycan array binding signal (z-score)", "recorded value": -0.788}
{"binder": "LlpB (Pseudomonas fluorescens) (protein) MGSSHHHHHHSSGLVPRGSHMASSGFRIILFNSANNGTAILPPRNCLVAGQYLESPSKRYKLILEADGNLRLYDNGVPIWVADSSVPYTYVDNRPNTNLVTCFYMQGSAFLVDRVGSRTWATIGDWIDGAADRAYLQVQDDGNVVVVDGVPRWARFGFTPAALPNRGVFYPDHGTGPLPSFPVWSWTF", "recorded endpoint": "glycan array binding signal (z-score)", "recorded value": -1.73}
{"binder": "AAL (Agrocybe aegerita), Q6WY08 (protein) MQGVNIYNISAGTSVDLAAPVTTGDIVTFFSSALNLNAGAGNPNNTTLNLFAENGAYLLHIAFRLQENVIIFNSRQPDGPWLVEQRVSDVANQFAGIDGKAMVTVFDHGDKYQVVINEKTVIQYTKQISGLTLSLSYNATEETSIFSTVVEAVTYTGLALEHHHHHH", "recorded endpoint": "glycan array binding signal (z-score)", "recorded value": 10.9}
